# Test system: SF-539 CNS
# test: NCI-60 one-dose screen, 48 h (100 = growth as untreated, 0 = no growth, -100 = all killed)
# condition_details: 10 µM unless noted
The panel holds about 83,000 compounds, 20% with a hit somewhere; the sample as a whole holds those more often.
measured_metric: growth (%)
Hi! Could you send only the number? It should be in %, unit omitted.

compound_smiles: CCN(CCC#N)c1ccccc1
recorded_measurement: 96.5
--
compound_smiles: COC1(OC)C2(Cl)CCC1(Cl)C(Cl)=C2Cl
recorded_measurement: 101
--
compound_smiles: COc1ccc(-c2nn(C(=O)NCCN(C)C)cc2-c2ccncc2)cc1Cl
recorded_measurement: 25.6
--
compound_smiles: COc1ccc(-c2conc2-n2nc(-c3ccccc3)nc2-c2ccccc2)cc1
recorded_measurement: 107
--
compound_smiles: CCN(CC)c1ccc2c(cc1=O)[C@@H](NC(C)=O)CCc1cc(OC)c(OC)c(OC)c1-2
recorded_measurement: -3.76

Next compound, growth to be filled in.
Any idea what growth was measured for `O=C1SCN(Cc2ccccc2)CN1Cc1ccccc1` ?
104

---

# Tested on: KM12 colon
# test: NCI-60 one-dose screen, 48 h
# condition_details: 10 µM unless noted
Compounds without any hit were thinned out: in the full panel of roughly 83,000, 20% have a hit. Active and inactive are the calls of the source. The calls were made as follows: active = growth percent below 10; inactive = the rest.
Can you answer with just one of these options? active, inactive

For this compound, state the assay outcome: `COc1cccc(N2CCN(c3ncnc4cc[nH]c34)CC2)c1`
inactive

And for CCCCc1nc(Cl)c(C2CC(c3ccc(S(N)(=O)=O)cc3)=NN2c2ccc(C#N)cc2)[nH]1 (centres undefined) ?
inactive

And for `CC1(C)CN(CCNc2nccc(-c3c(-c4cccc(O)c4)nc4sccn34)n2)S(=O)(=O)N1` ?
inactive

And for ClC1(Cl)C2CCCCCCC21 (centres undefined) ?
inactive

---

# Tested on: ACHN renal
# test: NCI-60 one-dose screen, 48 h (100 = growth as untreated, 0 = no growth, -100 = all killed)
# condition_details: 10 µM unless noted
Compounds without any hit were thinned out: in the full panel of roughly 83,000, 20% have a hit.
Reported growth values follow for various molecules
Hi! Could you send only the number? It should be in %, unit omitted.

compound_smiles: CNC(=O)c1c(NC(=O)c2ccc(C(C)C)cc2)sc2c1CCC(=O)C2
growth, %: -90.2
//
compound_smiles: NS(=O)(=O)c1ccc(CCn2c(SCC(=O)N/N=C/c3cc4ccccc4[nH]3)nc3ccccc3c2=O)cc1
growth, %: 93.9

Next molecule, growth to be filled in.
Any idea what growth was measured for `N/N=C(\C(=N\N)c1ccccc1)c1ccccc1` ?
104

---

Reported growth values follow for various compounds
# System: BT-549 breast
# test: NCI-60 one-dose screen, 48 h (100 = growth as untreated, 0 = no growth, -100 = all killed)
# condition_details: 10 µM unless noted
This is part of a sample that, as a whole, favours compounds with a hit. Of some 83,000 tested, about 20% had one in any assay.
Hi! Could you send only the number? It should be in %, unit omitted.

compound: CCCCc1nc(Cl)c(C2CC(c3ccc(S(N)(=O)=O)cc3)=NN2c2ccc(C#N)cc2)[nH]1 (stereo unspecified)
recorded_measurement: 80.6

compound: O=[N+]([O-])c1ccc(SSc2ccc([N+](=O)[O-])cc2Cl)c(Cl)c1
recorded_measurement: 97.4

compound: O=C(CC(=O)c1ccccc1F)Nc1ccc([N+](=O)[O-])cc1
recorded_measurement: 89.7

Any idea what growth was measured for `COc1cccc(/C=N\Nc2ccc([N+](=O)[O-])cn2)c1O` ?
71.8

And for `CC(=O)Nc1c(Br)cc2c(c1Br)Cc1cc(Br)ccc1-2` ?
77.3
